- Test system: OVCAR-4 ovarian
- assay overview: NCI tumour cell line growth inhibition, 48 h
TGI reference

Observe how each entry below is paired with its result.
molecule	assay endpoint	obs value
COc1cc(/C=C/C(=O)N2CCC=CC2=O)cc(OC)c1OC	TGI	17.4 µM
CCOc1ccc(/C=C(\Cl)c2ccc(OC)cc2)cc1	TGI	> 100 µM
CCOC(=O)/C(C#N)=C1\SS/C(=C(/C#N)C(=O)OCC)S1	TGI	29.8 µM
Nc1nnc(CCC(=O)Nc2cc(Cl)ccc2Cl)n1N	TGI	> 100 µM

Reported TGI for Cc1ccc(NC(=O)CSc2nnc(Cc3ccccc3)o2)cc1 was > 100 µM

Reported TGI for CN(C)Cc1ccc(C(C)(C)C)cc1-c1cc(C(C)(C)C)ccc1CN(C)C was > 100 µM

Reported TGI for Cc1cc(S(=O)(=O)Nc2n[nH]c(Nc3ccc4ccccc4c3)n2)c(S)cc1Cl was > 100 µM

Reported TGI for CC(c1ccccc1)[C@@H](C(=O)Nc1ccc(I)cc1F)N1C(=O)N[C@H](c2ccc(OC[C@H](O)CO)cc2)C1=O (some centres undefined) was > 25 µM

Reported TGI for O=c1cc(NNc2ccccc2F)[nH]c(=O)[nH]1 was 31.5 µM

Reported TGI for COc1ccc(-c2nn(-c3ccc(NC(=O)c4cc(Cl)cc(Cl)c4)cc3)cc2-c2ccncc2)cc1Cl was > 100 µM

Reported TGI for CC[C@]1(O)CC2CN(CCc3c([nH]c4ccccc34)[C@@](C(=O)OC)(c3cc4c(cc3OC)N(C=O)[C@H]3[C@@](O)(C(=O)OC)[C@H](OC(C)=O)[C@]5(CC)C=CCN6CC[C@]43[C@@H]65)C2)C1 (some centres undefined) was > 50 µM

Reported TGI for CC(C)CC(NP(=O)(O)OC1OC(C)C(O)C(O)C1O)C(=O)NC(Cc1c[nH]c2ccccc12)C(=O)O (centres undefined) was > 100 µM

Reported TGI for Cc1cc(C)c2c(c1)CC1(Cc3ccc(C)c(C)c3C1=O)C2=O (centres undefined) was > 100 µM

Reported TGI for NC(=O)CC1(O)C=C(Br)C(=O)C(Br)=C1 was 15.9 µM

Reported TGI for CN1CCN(c2ccc(NC(=O)c3cncnc3Nc3ccc(OCc4cccc(F)c4)c(Cl)c3)cc2)CC1 was > 50 µM

Reported TGI for Clc1ccc(Nc2nc(Nc3ccccc3)nc(Nc3ccc(-c4cc(-c5ccc(Cl)cc5)on4)cc3)n2)cc1 was > 100 µM

Reported TGI for O=c1ccc(=O)n(-c2ccccc2)[nH]1 was > 100 µM

Reported TGI for O=C1/C(=C/c2[nH]ncc2-c2ccc(Cl)cc2)C(=O)N(c2ccccc2)C1c1ccccc1 (centres undefined) was 96.5 µM

Reported TGI for c1ccc(-c2c3c(nc4c2CC[C@H]4NC2=NCCN2)[C@@H](NC2=NCCN2)CC3)cc1 was > 100 µM

* * *

- Tested on: UACC-257 melanoma
- assay overview: NCI tumour cell line growth inhibition, 48 h; in the data active = GI50 below about 0.43 µM; inactive = the rest
Write down one outcome, taken from true (1) = active, false (0) = inactive

Completed entries (count: 2):
compound	target under test	class name
COc1ccc(-c2[nH]nc(N)c2-c2cc(OC)c3c(c2)OCO3)cc1	UACC-257 melanoma	false (0)
C[C@@H](NC(=O)c1ncnc(N)c1Cl)c1ncc(C(=O)Nc2cc(C(F)(F)F)c(Cl)cn2)s1	UACC-257 melanoma	false (0)

I'd appreciate the recorded outcome for CN1CCN(c2ccc(NC(=O)c3cncnc3Nc3ccc(OCc4cccc(F)c4)c(Cl)c3)cc2)CC1 from this test.
false (0)

I'd appreciate the recorded outcome for Cc1ccc(-c2nc3cc(Cl)c(Cl)cc3nc2C#N)cc1 from this test.
false (0)

I'd appreciate the recorded outcome for O=C(Nc1cccc(-n2cc(-c3ccncc3)c(-c3ccc(O)c(Cl)c3)n2)c1)c1cc(C(F)(F)F)cc(C(F)(F)F)c1 from this test.
false (0)

This collection of values is drawn from PubChem BioAssay (NCI).
